EXPERIMENT DESCRIPTION: In vivo PET/MRI imaging of mice bearing B16/F1 tumors (SUV by VOI)
Design: species or system mouse
CONDITION PARAMETERS: NMRI-Foxn1nu/Foxn1nu, mouse, B16/F1 tumor, iv, total radioactivity, purified + 10,000-fold excess of unlabeled peptide, 1 h post injection, n = 1
ENDPOINT NAME: SUV at 1 h
Give the figure together with its unit, number first.

Supply measured SUV at 1 h of CCCC[C@H](NC(C)=O)C(=O)N[C@@H](CC(=O)O)C(=O)N[C@@H](Cc1c[nH]cn1)C(=O)N[C@H](Cc1ccccc1)C(=O)N[C@@H](CCCNC(=N)N)C(=O)N[C@@H](Cc1c[nH]c2ccccc12)C(=O)NCC(=O)N[C@@H](CCCCNC(=O)CN1CCN(CC(=O)O)CCN(CC(=O)O)CCN(CC(=O)O)CC1)C(N)=O [68Ga-DOTA-NAPamide, metal not drawn] in your reply.
0.152 SUV

* * *

EXPERIMENT DESCRIPTION: In vivo PET/MRI imaging of mice bearing B16/F1 tumors (SUV by VOI)
Parameters: species or system mouse
CONDITION PARAMETERS: NMRI-Foxn1nu/Foxn1nu, mouse, B16/F1 tumor, iv, total radioactivity, purified + 1,000-fold excess of cold peptide, 1 h post injection, n = 1
ENDPOINT NAME: SUV at 1 h (SUV)
Express your answer in SUV, writing the number without its unit.

Supply measured SUV at 1 h of CCCC[C@H](NC(C)=O)C(=O)N[C@@H](CC(=O)O)C(=O)N[C@@H](Cc1c[nH]cn1)C(=O)N[C@H](Cc1ccccc1)C(=O)N[C@@H](CCCNC(=N)N)C(=O)N[C@@H](Cc1c[nH]c2ccccc12)C(=O)NCC(=O)N[C@@H](CCCCNC(=O)CN1CCN(CC(=O)O)CCN(CC(=O)O)CCN(CC(=O)O)CC1)C(N)=O [68Ga-DOTA-NAPamide, metal not drawn] in your reply.
0.367

* * *

EXPERIMENT DESCRIPTION: In vivo biodistribution in B16/F1 xenograft-bearing nude mice
Set-up: species or system mouse
CONDITION PARAMETERS: NMRI-Foxn1nu/Foxn1nu, mouse, B16/F1 tumor, iv, 5 MBq, total radioactivity, HPLC-purified tracer, 1 h after i.v. injection, ~5 MBq, ± 95% CI, n = 7; read-out: tumor uptake
ENDPOINT NAME: tissue uptake at 1 h

Supply measured tissue uptake at 1 h of CCCC[C@H](NC(C)=O)C(=O)N[C@@H](CC(=O)O)C(=O)N[C@@H](Cc1c[nH]cn1)C(=O)N[C@H](Cc1ccccc1)C(=O)N[C@@H](CCCNC(=N)N)C(=O)N[C@@H](Cc1c[nH]c2ccccc12)C(=O)NCC(=O)N[C@@H](CCCCNC(=O)CN1CCN(CC(=O)O)CCN(CC(=O)O)CCN(CC(=O)O)CC1)C(N)=O [68Ga-DOTA-NAPamide, metal not drawn] in your reply.
7 %ID/g

* * *

EXPERIMENT DESCRIPTION: In vivo PET/MRI imaging of mice bearing B16/F1 tumors (SUV by VOI)
Set-up: species or system mouse
CONDITION PARAMETERS: NMRI-Foxn1nu/Foxn1nu, mouse, B16/F1 tumor, iv, 15 MBq, total radioactivity, purified tracer, 1 h post injection, n = 1
ENDPOINT NAME: SUV at 1 h (SUV)
Express your answer in SUV, writing the number without its unit.

Supply measured SUV at 1 h of CCCC[C@H](NC(C)=O)C(=O)N[C@@H](CC(=O)O)C(=O)N[C@@H](Cc1c[nH]cn1)C(=O)N[C@H](Cc1ccccc1)C(=O)N[C@@H](CCCNC(=N)N)C(=O)N[C@@H](Cc1c[nH]c2ccccc12)C(=O)NCC(=O)N[C@@H](CCCCNC(=O)CN1CCN(CC(=O)O)CCN(CC(=O)O)CCN(CC(=O)O)CC1)C(N)=O [68Ga-DOTA-NAPamide, metal not drawn] in your reply.
0.42

* * *

EXPERIMENT DESCRIPTION: In vivo biodistribution in B16/F1 xenograft-bearing nude mice
Parameters: species or system mouse
CONDITION PARAMETERS: NMRI-Foxn1nu/Foxn1nu, mouse, all other tissues (except tumor and kidneys), iv, 5 MBq, total radioactivity, 1 h after i.v. injection; mostly below; read-out: uptake in all other tissues (except tumor and kidneys)
ENDPOINT NAME: tissue uptake at 1 h

Supply measured tissue uptake at 1 h of CCCC[C@H](NC(C)=O)C(=O)N[C@@H](CC(=O)O)C(=O)N[C@@H](Cc1c[nH]cn1)C(=O)N[C@H](Cc1ccccc1)C(=O)N[C@@H](CCCNC(=N)N)C(=O)N[C@@H](Cc1c[nH]c2ccccc12)C(=O)NCC(=O)N[C@@H](CCCCNC(=O)CN1CCN(CC(=O)O)CCN(CC(=O)O)CCN(CC(=O)O)CC1)C(N)=O [68Ga-DOTA-NAPamide, metal not drawn] in your reply.
< 0.5 %ID/g

* * *

EXPERIMENT DESCRIPTION: In vivo PET/MRI imaging of mice bearing B16/F1 tumors (SUV by VOI)
Parameters: species or system mouse
CONDITION PARAMETERS: NMRI-Foxn1nu/Foxn1nu, mouse, B16/F1 tumor, iv, 15 MBq, total radioactivity, unpurified tracer (standard procedure), 1 h post injection, n = 1
ENDPOINT NAME: SUV at 1 h (SUV)
Express your answer in SUV, writing the number without its unit.

Supply measured SUV at 1 h of CCCC[C@H](NC(C)=O)C(=O)N[C@@H](CC(=O)O)C(=O)N[C@@H](Cc1c[nH]cn1)C(=O)N[C@H](Cc1ccccc1)C(=O)N[C@@H](CCCNC(=N)N)C(=O)N[C@@H](Cc1c[nH]c2ccccc12)C(=O)NCC(=O)N[C@@H](CCCCNC(=O)CN1CCN(CC(=O)O)CCN(CC(=O)O)CCN(CC(=O)O)CC1)C(N)=O [68Ga-DOTA-NAPamide, metal not drawn] in your reply.
0.119

* * *

EXPERIMENT DESCRIPTION: In vivo biodistribution in B16/F1 xenograft-bearing nude mice
Design: species or system mouse
CONDITION PARAMETERS: NMRI-Foxn1nu/Foxn1nu, mouse, B16/F1 tumor, iv, 5 MBq, total radioactivity, non-purified tracer (standard procedure), 1 h after i.v. injection, ~5 MBq, ± 95% CI, n = 7; read-out: tumor uptake
ENDPOINT NAME: tissue uptake at 1 h (%ID/g)
Express your answer in %ID/g, writing the number without its unit.

Supply measured tissue uptake at 1 h of CCCC[C@H](NC(C)=O)C(=O)N[C@@H](CC(=O)O)C(=O)N[C@@H](Cc1c[nH]cn1)C(=O)N[C@H](Cc1ccccc1)C(=O)N[C@@H](CCCNC(=N)N)C(=O)N[C@@H](Cc1c[nH]c2ccccc12)C(=O)NCC(=O)N[C@@H](CCCCNC(=O)CN1CCN(CC(=O)O)CCN(CC(=O)O)CCN(CC(=O)O)CC1)C(N)=O [68Ga-DOTA-NAPamide, metal not drawn] in your reply.
0.78
